- Tested on: Caco-2
- METHOD_SUMMARY: Cytotoxicity against human Caco2 cells assessed as decrease in cell viability in MTT assay
- Assay type: cell-based
Reported values of IC50 for individual entries
ASSAY_ENDPOINT: IC50 (µM)

sample_smiles=O=C(Nc1nnc(-c2ccc(F)cc2)o1)c1ccc(Cl)cc1 assayed_system=Caco-2 assay_endpoint=IC50 readout_qualifier== result=14
sample_smiles=O=C(Nc1nnc(-c2ccc(C(F)(F)F)cc2)o1)c1cccc(Cl)c1 assayed_system=Caco-2 assay_endpoint=IC50 readout_qualifier== result=11
sample_smiles=O=C(Nc1nnc(-c2ccc(C(F)(F)F)cc2)o1)c1ccc(Cl)nc1 assayed_system=Caco-2 assay_endpoint=IC50 readout_qualifier=> result=25
sample_smiles=O=C(Nc1ncc(-c2ccc(F)cc2)o1)c1ccc(Cl)cc1 assayed_system=Caco-2 assay_endpoint=IC50 readout_qualifier== result=3

---

- System: Listeria monocytogenes
- METHOD_SUMMARY: Antimicrobial activity against Listeria monocytogenes clinical isolate by broth microdilution method
- Type: functional
Reported values of MIC for individual entries
ASSAY_ENDPOINT: MIC (µg/mL)

sample_smiles=O=C(Nc1nnc(-c2ccc(F)cc2)o1)c1ccc(Cl)cc1 assay_endpoint=MIC result=4
sample_smiles=O=C(Nc1nnc(-c2ccc(C(F)(F)F)cc2)o1)c1cccc(Cl)c1 assay_endpoint=MIC result=8
sample_smiles=O=C(Nc1nnc(-c2ccc(C(F)(F)F)cc2)o1)c1ccc(Cl)nc1 assay_endpoint=MIC result=8

---

- Test system: Mycolicibacterium fortuitum
- METHOD_SUMMARY: Antimicrobial activity against Mycobacterium fortuitum clinical isolate by broth microdilution method
- Type: functional
ASSAY_ENDPOINT: MIC (µg/mL)

sample_smiles=O=C(Nc1nnc(-c2ccc(C(F)(F)F)cc2)o1)c1ccc(Cl)nc1 assayed_system="Mycolicibacterium fortuitum" assay_endpoint=MIC result=8
sample_smiles=O=C(Nc1nnc(-c2ccc(F)cc2)o1)c1ccc(Cl)cc1 assayed_system="Mycolicibacterium fortuitum" assay_endpoint=MIC result=32

---

- System: Kocuria rhizophila
- METHOD_SUMMARY: Antimicrobial activity against Kocuria rhizophila clinical isolate at 50 ug/disk incubated for 20 +/- 4 hrs by agar disk diffusion method
- Assay type: functional
- REPORTED_CONDITIONS: read-out: DIZ
Classification field: enter Satisfied for zone of inhibition at 50 µg/disc values not below 20 mm, Not satisfied for values below it.

sample_smiles=O=C(Nc1nnc(-c2ccc(C(F)(F)F)cc2)o1)c1ccc(Cl)cc1 assayed_system="Kocuria rhizophila" label="Not satisfied"
sample_smiles=O=C(Nc1nnc(-c2ccc(C(F)(F)F)cc2)o1)c1ccc(Cl)nc1 assayed_system="Kocuria rhizophila" label=Satisfied
sample_smiles=O=C(Nc1nnc(-c2ccc(C(F)(F)F)cc2)o1)c1cccc(Cl)c1 assayed_system="Kocuria rhizophila" label=Satisfied
sample_smiles=O=C(Nc1nnc(-c2ccc(F)cc2)o1)c1ccc(Cl)cc1 assayed_system="Kocuria rhizophila" label="Not satisfied"
sample_smiles=O=C(Nc1ncc(-c2ccc(F)cc2)o1)c1ccc(Cl)cc1 assayed_system="Kocuria rhizophila" label="Not satisfied"

---

- System: Escherichia coli
- METHOD_SUMMARY: Antimicrobial activity against Escherichia coli ATCC 25922 at 50 ug/disk incubated for 20 +/- 4 hrs by agar disk diffusion method
- Type: functional
- REPORTED_CONDITIONS: read-out: DIZ
ASSAY_ENDPOINT: zone of inhibition at 50 µg/disc (mm)

sample_smiles=O=C(Nc1nnc(-c2ccc(F)cc2)o1)c1ccc(Cl)cc1 assay_endpoint="zone of inhibition at 50 µg/disc" result=6
sample_smiles=O=C(Nc1nnc(-c2ccc(C(F)(F)F)cc2)o1)c1ccc(Cl)cc1 assay_endpoint="zone of inhibition at 50 µg/disc" result=6
sample_smiles=O=C(Nc1nnc(-c2ccc(C(F)(F)F)cc2)o1)c1ccc(Cl)nc1 assay_endpoint="zone of inhibition at 50 µg/disc" result=6
sample_smiles=O=C(Nc1nnc(-c2ccc(C(F)(F)F)cc2)o1)c1cccc(Cl)c1 assay_endpoint="zone of inhibition at 50 µg/disc" result=6
sample_smiles=O=C(Nc1ncc(-c2ccc(F)cc2)o1)c1ccc(Cl)cc1 assay_endpoint="zone of inhibition at 50 µg/disc" result=8

---

Reported values of MIC for individual entries
- System: Enterococcus faecalis
- METHOD_SUMMARY: Antimicrobial activity against Enterococcus faecalis ATCC 29212 by broth microdilution method
- Format: functional
ASSAY_ENDPOINT: MIC

sample_smiles=O=C(Nc1ncc(-c2ccc(F)cc2)o1)c1ccc(Cl)cc1 result="2 to 16 µg/mL"
sample_smiles=O=C(Nc1nnc(-c2ccc(F)cc2)o1)c1ccc(Cl)cc1 result="16 µg/mL"
sample_smiles=O=C(Nc1nnc(-c2ccc(C(F)(F)F)cc2)o1)c1cccc(Cl)c1 result="0.125 to 1 µg/mL"
sample_smiles=O=C(Nc1nnc(-c2ccc(C(F)(F)F)cc2)o1)c1ccc(Cl)nc1 result="2 to 4 µg/mL"

---

- Test system: Staphylococcus aureus
- METHOD_SUMMARY: Antimicrobial activity against Staphylococcus aureus ATCC 29213 at 50 ug/disk incubated for 20 +/- 4 hrs by agar disk diffusion method
- Type: functional
- REPORTED_CONDITIONS: read-out: DIZ
Classification field: enter met for zone of inhibition at 50 µg/disc values not below 10 mm, not met for values below it.

sample_smiles=O=C(Nc1nnc(-c2ccc(F)cc2)o1)c1ccc(Cl)cc1 label=met
sample_smiles=O=C(Nc1nnc(-c2ccc(C(F)(F)F)cc2)o1)c1ccc(Cl)cc1 label="not met"
sample_smiles=O=C(Nc1nnc(-c2ccc(C(F)(F)F)cc2)o1)c1ccc(Cl)nc1 label=met
sample_smiles=O=C(Nc1nnc(-c2ccc(C(F)(F)F)cc2)o1)c1cccc(Cl)c1 label=met
sample_smiles=O=C(Nc1ncc(-c2ccc(F)cc2)o1)c1ccc(Cl)cc1 label=met

---

- System: NCI-H727
- METHOD_SUMMARY: Cytotoxicity against human NCI-H727 cells assessed as decrease in cell viability in MTT assay
- Format: cell-based
ASSAY_ENDPOINT: IC50 (µM)

sample_smiles=O=C(Nc1nnc(-c2ccc(F)cc2)o1)c1ccc(Cl)cc1 assay_endpoint=IC50 scale_unit=µM readout_qualifier== result=18
sample_smiles=O=C(Nc1nnc(-c2ccc(C(F)(F)F)cc2)o1)c1cccc(Cl)c1 assay_endpoint=IC50 scale_unit=µM readout_qualifier== result=10
sample_smiles=O=C(Nc1nnc(-c2ccc(C(F)(F)F)cc2)o1)c1ccc(Cl)nc1 assay_endpoint=IC50 scale_unit=µM readout_qualifier=> result=25

---

- Tested on: Huh-7
- METHOD_SUMMARY: Cytotoxicity against human HuH7 cells assessed as decrease in cell viability in MTT assay
- Format: cell-based
ASSAY_ENDPOINT: IC50 (µM)

sample_smiles=O=C(Nc1ncc(-c2ccc(F)cc2)o1)c1ccc(Cl)cc1 assay_endpoint=IC50 readout_qualifier== result=3
sample_smiles=O=C(Nc1nnc(-c2ccc(F)cc2)o1)c1ccc(Cl)cc1 assay_endpoint=IC50 readout_qualifier== result=20
sample_smiles=O=C(Nc1nnc(-c2ccc(C(F)(F)F)cc2)o1)c1cccc(Cl)c1 assay_endpoint=IC50 readout_qualifier== result=20
sample_smiles=O=C(Nc1nnc(-c2ccc(C(F)(F)F)cc2)o1)c1ccc(Cl)nc1 assay_endpoint=IC50 readout_qualifier=> result=25

---

- Tested on: MDA-MB-231
- METHOD_SUMMARY: Cytotoxicity against human MDA-MB-231 cells assessed as decrease in cell viability in MTT assay
- Format: cell-based
pIC50: −log10 of the molar value.
ASSAY_ENDPOINT: pIC50

sample_smiles=O=C(Nc1nnc(-c2ccc(C(F)(F)F)cc2)o1)c1ccc(Cl)nc1 readout_qualifier=< result=4.60
sample_smiles=O=C(Nc1nnc(-c2ccc(F)cc2)o1)c1ccc(Cl)cc1 readout_qualifier== result=4.60
sample_smiles=O=C(Nc1nnc(-c2ccc(C(F)(F)F)cc2)o1)c1cccc(Cl)c1 readout_qualifier== result=4.64
sample_smiles=O=C(Nc1ncc(-c2ccc(F)cc2)o1)c1ccc(Cl)cc1 readout_qualifier== result=5.30

---

- System: Bacteroides fragilis
- METHOD_SUMMARY: Antimicrobial activity against Bacteroides fragilis ATCC 25285 by broth microdilution method
- Format: functional
ASSAY_ENDPOINT: MIC

sample_smiles=O=C(Nc1nnc(-c2ccc(C(F)(F)F)cc2)o1)c1ccc(Cl)nc1 assay_endpoint=MIC result="2 µg/mL"
sample_smiles=O=C(Nc1nnc(-c2ccc(F)cc2)o1)c1ccc(Cl)cc1 assay_endpoint=MIC result="2 to 4 µg/mL"
sample_smiles=O=C(Nc1nnc(-c2ccc(C(F)(F)F)cc2)o1)c1cccc(Cl)c1 assay_endpoint=MIC result="1 to 2 µg/mL"

---

Reported values of zone of inhibition at 50 µg/disc for individual entries
- System: Bacillus subtilis
- METHOD_SUMMARY: Antimicrobial activity against Bacillus subtilis clinical isolate at 50 ug/disk incubated for 20 +/- 4 hrs by agar disk diffusion method
- Assay type: functional
- REPORTED_CONDITIONS: read-out: DIZ
ASSAY_ENDPOINT: zone of inhibition at 50 µg/disc (mm)

sample_smiles=O=C(Nc1nnc(-c2ccc(F)cc2)o1)c1ccc(Cl)cc1 assayed_system="Bacillus subtilis" result=12
sample_smiles=O=C(Nc1ncc(-c2ccc(F)cc2)o1)c1ccc(Cl)cc1 assayed_system="Bacillus subtilis" result=15
sample_smiles=O=C(Nc1nnc(-c2ccc(C(F)(F)F)cc2)o1)c1ccc(Cl)cc1 assayed_system="Bacillus subtilis" result=13
sample_smiles=O=C(Nc1nnc(-c2ccc(C(F)(F)F)cc2)o1)c1cccc(Cl)c1 assayed_system="Bacillus subtilis" result=24
sample_smiles=O=C(Nc1nnc(-c2ccc(C(F)(F)F)cc2)o1)c1ccc(Cl)nc1 assayed_system="Bacillus subtilis" result=24
